# Experiment Notes: Inhibition of amyloid beta 25-35 fibril formation at 10 uM by using UV-visible measurements and electron microscopy analysis
Property Name: inhibition (%)

Oc1ccc(/C=C/c2cc(O)cc3c2[C@H](c2cc(O)cc(O)c2)[C@@H](c2ccc(O)c(O)c2)O3)cc1 :: 80
OC[C@@H]1O[C@H](Oc2ccc(/C=C/c3cc(O)c4c(c3)O[C@H](c3ccc(O[C@H]5O[C@@H](CO)[C@H](O)[C@@H](O)[C@@H]5O)cc3)[C@H]4c3cc(O)cc(O)c3)cc2)[C@@H](O)[C@H](O)[C@H]1O [12,GNEMENOSIDE A] :: 46
Oc1ccc(/C=C/c2cc(O)cc(O)c2)cc1 :: 63
COc1cc(/C=C/c2ccc(O)cc2)cc(OC)c1 :: 35
Oc1cc(O)cc(/C=C/c2ccc(O)cc2O)c1 :: 32
COc1cc(/C=C/c2cc(O)cc(O)c2)ccc1O[C@@H]1O[C@H](CO)[C@@H](O)[C@H](O)[C@H]1O :: 28
COc1cc(/C=C/c2cc(O)c3c(c2)O[C@H](c2ccc(O)c(OC)c2)[C@H]3c2cc(O)cc(O)c2)ccc1O :: 40
COc1cc(/C=C/C(=O)CC(=O)/C=C/c2ccc(O)c(OC)c2)ccc1O :: 45

###

# Experiment Notes: Inhibition of amyloid beta 25-35 fibril formation at 10 uM by using UV-visible measurements and electron microscopy analysis
Short version: inhibition at least 30% is true (1), less is false (0).

Oc1ccc(/C=C/c2cc(O)cc3c2[C@H](c2cc(O)cc(O)c2)[C@@H](c2ccc(O)cc2)O3)cc1 :: false (0)
OC[C@H]1O[C@@H](Oc2cc(O)cc(/C=C/c3ccc(O)cc3)c2)[C@H](O)[C@@H](O)[C@@H]1O [PICEID] :: true (1)
Oc1cc(O)cc(-c2cc3ccc(O)cc3o2)c1 :: false (0)
OC[C@H]1O[C@@H](Oc2ccc(/C=C/c3cc(O)cc(O)c3)cc2)[C@H](O)[C@@H](O)[C@@H]1O :: false (0)
Oc1ccc(C2Oc3ccc(/C=C/c4cc(O)cc5c4[C@H](c4cc(O)cc(O)c4)[C@@H](c4ccc(O)cc4)O5)cc3[C@@H]2c2cc(O)cc3c2[C@H](c2cc(O)cc(O)c2)C(c2ccc(O)cc2)O3)cc1 (stereo not given in full) :: true (1)

###

Overview of reported inhibition across a group of molecules:
# Experiment Notes: Inhibition of amyloid beta 25-35 fibril formation at 10 uM by using UV-visible measurements and electron microscopy analysis
Property Name: inhibition (%)

OC[C@H]1O[C@@H](Oc2cc(/C=C/c3ccc(O)cc3)c3c(c2)O[C@H](c2ccc(O)cc2)[C@H]3c2cc(O)cc(O)c2)[C@H](O)[C@@H](O)[C@@H]1O :: 93
Oc1cc(O)cc(/C=C/c2ccc(O)c(O)c2)c1 :: 25
Oc1ccc([C@H]2Oc3cc(O)c([C@@H]4[C@@H](c5cc6c(cc5O)O[C@H](c5ccc(O)cc5)[C@H]6c5cc(O)cc(O)c5)[C@H](c5ccc(O)cc5)O[C@@H]4c4ccc(O)cc4)cc3[C@@H]2c2cc(O)cc(O)c2)cc1 :: 17
